Sourced from patent US20020177180A1

Test system: esterase E016
Assay: Initial screening of ThermoGen esterases toward esters 1-31 (pH indicator), specific activity
Type: biochemical
Settings: 1 mM substrate, pH 7.2, 7 vol % acetonitrile, 25° C.
measure: Specific activity, esterase E016

- NC(Cc1ccccc1)C(=O)Oc1ccc([N+](=O)[O-])cc1.O=C(O)C(F)(F)F (racemic) [Substrate 3, reference compound]: 230 mmol ester hydrolyzed/min/mg protein
- C=COC(=O)CCCCCCCCCCCCC [Substrate 7]: 21 mmol ester hydrolyzed/min/mg protein
- CCCCOC(C)=O [Substrate 25]: 13 mmol ester hydrolyzed/min/mg protein
- C=COC(=O)C(C)(C)C [Substrate 11]: 20 mmol ester hydrolyzed/min/mg protein
- CC(C)Cc1ccc(C(C)C(=O)Oc2ccc([N+](=O)[O-])cc2)cc1 (racemic) [Substrate 2, reference compound]: 220 mmol ester hydrolyzed/min/mg protein

Here is the next item to consider.
## Input Form field: reported Specific activity, esterase E016 of COC(=O)CBr [Substrate 19]
## Output 7.6 mmol ester hydrolyzed/min/mg protein
